biological target: MUC1 on HCT116/MUC1 cells (human, UniProt P15941 24-1255); test: flow cytometry on HCT116/MUC1 cells; antibody at 1.234568 nM
Sequence (P15941 24-1097, chain 1 of 2): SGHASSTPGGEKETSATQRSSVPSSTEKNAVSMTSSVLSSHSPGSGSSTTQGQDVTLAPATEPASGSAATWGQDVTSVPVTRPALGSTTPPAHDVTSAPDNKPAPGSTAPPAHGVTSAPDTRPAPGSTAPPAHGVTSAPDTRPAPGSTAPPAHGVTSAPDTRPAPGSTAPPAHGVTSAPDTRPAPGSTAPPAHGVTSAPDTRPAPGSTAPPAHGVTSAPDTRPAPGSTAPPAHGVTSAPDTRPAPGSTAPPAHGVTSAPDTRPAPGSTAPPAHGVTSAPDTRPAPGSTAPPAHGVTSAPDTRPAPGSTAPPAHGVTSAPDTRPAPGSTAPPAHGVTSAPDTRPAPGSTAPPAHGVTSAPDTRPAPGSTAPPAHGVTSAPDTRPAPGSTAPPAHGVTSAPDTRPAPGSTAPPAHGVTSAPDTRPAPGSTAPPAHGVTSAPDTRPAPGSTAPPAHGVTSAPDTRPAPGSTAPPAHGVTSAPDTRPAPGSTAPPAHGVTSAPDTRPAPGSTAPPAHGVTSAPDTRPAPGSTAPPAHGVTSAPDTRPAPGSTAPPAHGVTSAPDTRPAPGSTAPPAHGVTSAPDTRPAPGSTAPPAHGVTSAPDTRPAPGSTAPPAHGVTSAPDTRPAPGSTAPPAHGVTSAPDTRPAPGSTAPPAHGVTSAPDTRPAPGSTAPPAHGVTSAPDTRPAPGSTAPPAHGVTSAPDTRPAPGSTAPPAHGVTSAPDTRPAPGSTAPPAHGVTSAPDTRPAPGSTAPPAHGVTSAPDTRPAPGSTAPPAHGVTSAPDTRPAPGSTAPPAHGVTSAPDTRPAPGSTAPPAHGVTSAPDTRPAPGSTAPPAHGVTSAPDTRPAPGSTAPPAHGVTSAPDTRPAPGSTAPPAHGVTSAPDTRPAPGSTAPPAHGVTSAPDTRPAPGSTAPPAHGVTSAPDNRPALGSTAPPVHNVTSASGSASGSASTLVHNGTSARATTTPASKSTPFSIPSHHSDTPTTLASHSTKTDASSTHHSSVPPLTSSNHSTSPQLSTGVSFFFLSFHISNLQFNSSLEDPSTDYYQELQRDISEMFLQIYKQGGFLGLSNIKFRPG
Sequence (P15941 1098-1255, chain 2 of 2): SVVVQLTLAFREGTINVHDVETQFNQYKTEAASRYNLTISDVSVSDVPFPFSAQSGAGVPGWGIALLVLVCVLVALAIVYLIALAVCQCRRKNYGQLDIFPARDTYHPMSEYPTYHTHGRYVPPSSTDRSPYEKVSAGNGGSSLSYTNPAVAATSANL
quantityMeasured: FACS titration signal
// no unit, no text: just the number

Task item: # lookup: FACS titration signal of VH5 + VL2 (antibody, V domains shown) VH: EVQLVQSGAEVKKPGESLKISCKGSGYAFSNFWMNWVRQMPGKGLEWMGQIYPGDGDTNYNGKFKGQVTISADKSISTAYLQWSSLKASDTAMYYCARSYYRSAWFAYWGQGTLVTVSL VL: EIVMTQSPATLSVSPGERATLSCRASQSIGTSIHWYQQKPGQAPRLLIYYASESISGIPARFSGSGSGTEFTLTISSLQSEDFAVYYCQQSNNWPLTFGGGTKVEIK
Reply: 11.8

Task item: What value of FACS titration signal has been recorded for this entry: VH1 + VL3 (antibody, V domains shown) VH: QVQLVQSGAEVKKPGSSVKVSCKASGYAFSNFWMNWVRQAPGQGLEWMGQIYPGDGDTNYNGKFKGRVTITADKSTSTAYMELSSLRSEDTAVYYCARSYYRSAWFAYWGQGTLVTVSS VL: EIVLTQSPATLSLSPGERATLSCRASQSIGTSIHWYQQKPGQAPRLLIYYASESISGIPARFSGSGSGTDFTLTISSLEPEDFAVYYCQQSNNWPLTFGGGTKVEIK
Reply: 7.09

Task item: I have this binder here, VH2 + VL3 (antibody, V domains shown) VH: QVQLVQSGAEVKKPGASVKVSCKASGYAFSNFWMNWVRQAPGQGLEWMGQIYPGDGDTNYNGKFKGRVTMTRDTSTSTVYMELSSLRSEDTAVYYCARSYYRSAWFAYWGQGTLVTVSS VL: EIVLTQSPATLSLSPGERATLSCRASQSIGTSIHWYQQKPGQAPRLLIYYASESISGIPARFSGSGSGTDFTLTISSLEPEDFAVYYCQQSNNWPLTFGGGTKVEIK , and I need its recorded FACS titration signal.
Reply: 10.6

Task item: Look up FACS titration signal for this binder: VH1 + VL4 (antibody, V domains shown) VH: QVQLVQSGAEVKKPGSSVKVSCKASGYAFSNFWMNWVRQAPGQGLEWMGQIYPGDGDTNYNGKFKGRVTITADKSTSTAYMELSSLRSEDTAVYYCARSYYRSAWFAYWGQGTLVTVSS VL: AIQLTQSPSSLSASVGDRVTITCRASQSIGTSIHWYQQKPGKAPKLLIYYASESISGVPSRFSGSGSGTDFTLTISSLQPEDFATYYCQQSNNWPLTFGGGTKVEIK
Reply: 7.61
